# TEST_SYSTEM: T1, 4H3066-AA
# T1 chain: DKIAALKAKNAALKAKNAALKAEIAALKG
# TEST_METHOD_NOTES: two-hybrid library CCmax;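 note: natural log of median RNA to DNA barcode read ratio; higher means stronger binding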
# TEST_CONTEXT: mean of both orientations
Measured interaction score accompanies every entry in the list below.

{"BINDER": "DKIAALKAENAALEAENAALKAEIAALEG [4H2713-AA]", "DATA_VALUE": 1.76}
{"BINDER": "DKIAALKAKNAALEAEIAALEAENAALKG [4H2948-AA]", "DATA_VALUE": -1.57}
{"BINDER": "DENAALKAKIAALEAKNAALKAKIAALKG [4H1854-AA]", "DATA_VALUE": -1.5}

Then there is this binder:
In: Item DEIAALEAENAALEAENAALEAEIAALKG [4H146-AA] : provide interaction score
Out: 1.92
